Each item that follows carries a reported EC50.
Biological target: T1, human CD70 expressed on the cell surface of tumor cell lines (human, UniProt P32970 1-193)
T1 construct: whole, on cells
T1 sequence (looked up): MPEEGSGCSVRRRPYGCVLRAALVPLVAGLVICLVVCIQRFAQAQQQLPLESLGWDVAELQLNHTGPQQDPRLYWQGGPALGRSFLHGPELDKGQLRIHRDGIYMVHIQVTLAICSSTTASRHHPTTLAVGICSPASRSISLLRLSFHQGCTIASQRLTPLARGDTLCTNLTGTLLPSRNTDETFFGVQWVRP
Test: flow cytometry on Caki-1 cells
Give the value in nM but do not write nM after it.

69A7 (parent antibody), full IgG (antibody, V domains shown, also called parent antibody 69A7) VH: QVQLQESGPGLVKPSETLSLTCTVSGGSVSSDYYYWSWIRQPPGKGLEWLGYIYYSGSTNYNPSLKSRVTISVDTSKNQFSLKLRSVTTADTAVYYCARGDGDYGGNCFDYWGQGTLVTVSS VL: EIVLTQSPATLSLSPGERATLSCRASQSVSSYLAWYQQKPGQAPRLLIFDASNRATGIPARFSGSGSGTDFTLTISSLEPEDFAVYYCQQRSNWPLTFGGGTKVEIK    9.89
2A4P0L1, full IgG (antibody, V domains shown) VH: QVQLQESGPGLVKPSETLSLTCTVSGGSVSSDYYYWSWIRQPPGKGLEWLGYIYYSGSTNYNPSLKSRVTISVDTSKNQFSLKLRSVTTADTAVYYCARGDGDYGGNVFPYWGQGTLVTVSS VL: EIVLTQSPATLSLSPGERATLSCRASQSVSSYLAWYQQKPGQAPRLLIFDASNRATGIPARFSGSGSGTDFTLTISSLEPEDFAVYYCQQRLKFPLTFGGGTKVEIK    5.44
2A4, full IgG (antibody, V domains shown) VH: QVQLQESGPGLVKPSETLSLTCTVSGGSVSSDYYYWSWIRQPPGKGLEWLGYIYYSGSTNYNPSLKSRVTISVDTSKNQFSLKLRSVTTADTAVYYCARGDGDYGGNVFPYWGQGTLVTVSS VL: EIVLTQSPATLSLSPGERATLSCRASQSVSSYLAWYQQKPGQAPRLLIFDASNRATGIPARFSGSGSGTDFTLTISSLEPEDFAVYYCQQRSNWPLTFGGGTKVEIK    284

// EC50 value for 2D2, full IgG (antibody, V domains shown) VH: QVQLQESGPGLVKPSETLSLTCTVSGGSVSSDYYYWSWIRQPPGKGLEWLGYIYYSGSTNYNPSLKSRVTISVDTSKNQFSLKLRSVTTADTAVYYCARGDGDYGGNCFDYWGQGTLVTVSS VL: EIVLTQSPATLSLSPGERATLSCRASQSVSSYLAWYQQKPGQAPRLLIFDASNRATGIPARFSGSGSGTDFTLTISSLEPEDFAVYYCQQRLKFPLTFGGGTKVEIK : 5.98

// EC50 value for 1H8, full IgG (antibody, V domains shown) VH: QVQLQESGPGLVKPSETLSLTCTVSGGSVSSDYYYWSWIRQPPGKGLEWLGYIYYSGSTNYNPSLKSRVTISVDTSKNQFSLKLRSVTTADTAVYYCARGDGDFMGVCFDYWGQGTLVTVSS VL: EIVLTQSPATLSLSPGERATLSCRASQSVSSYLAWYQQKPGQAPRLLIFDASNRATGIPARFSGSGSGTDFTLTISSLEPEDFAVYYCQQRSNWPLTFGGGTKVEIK : 5.65

// EC50 value for 2E7, full IgG (antibody, V domains shown) VH: QVQLQESGPGLVKPSETLSLTCTVSGGSVSSDYYYWSWIRQPPGKGLEWLGYIYYSGSTNYNPSLKSRVTISVDTSKNQFSLKLRSVTTADTAVYYCARGDGDFLGVCFDYWGQGTLVTVSS VL: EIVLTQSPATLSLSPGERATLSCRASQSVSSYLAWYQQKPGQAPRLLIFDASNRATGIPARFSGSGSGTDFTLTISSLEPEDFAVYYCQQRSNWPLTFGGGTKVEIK : 2.81

The values you see were collected from patent US20250066490A1.
